B1: library; a variant is named by its letters at N, in order (parent)
chain: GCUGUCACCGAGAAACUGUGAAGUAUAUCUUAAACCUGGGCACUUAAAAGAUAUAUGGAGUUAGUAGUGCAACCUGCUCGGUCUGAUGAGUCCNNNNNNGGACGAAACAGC

- Variants of: B1
- test-protocol: FACS-Seq fitted mean relative fluorescence mCherry/BFP without ligand (log10 relative fluorescence); HEK293T; ligand: cyclic di-GMP (c-di-GMP-II aptamer); higher = higher reporter protein expression
- conditions: ligand present: no
metric-name: FACS-Seq fitted mean (log10)
Numbers only.

Observe how each entry below is paired with its result.
{"columns": ["sequence-input", "metric-name", "readout-value"],
 "data": [
  ["GCUGUCACCGAGAAACUGUGAAGUAUAUCUUAAACCUGGGCACUUAAAAGAUAUAUGGAGUUAGUAGUGCAACCUGCUCGGUCUGAUGAGUCCCUGAAUGGACGAAACAGC", "FACS-Seq fitted mean (log10)", -0.0233],
  ["GCUGUCACCGAGAAACUGUGAAGUAUAUCUUAAACCUGGGCACUUAAAAGAUAUAUGGAGUUAGUAGUGCAACCUGCUCGGUCUGAUGAGUCCUAACGGGGACGAAACAGC", "FACS-Seq fitted mean (log10)", -0.162],
  ["GCUGUCACCGAGAAACUGUGAAGUAUAUCUUAAACCUGGGCACUUAAAAGAUAUAUGGAGUUAGUAGUGCAACCUGCUCGGUCUGAUGAGUCCACUACAGGACGAAACAGC", "FACS-Seq fitted mean (log10)", -0.0979]
]}

Fill in FACS-Seq fitted mean (log10) for each of the 6 variants listed.
1. GCUGUCACCGAGAAACUGUGAAGUAUAUCUUAAACCUGGGCACUUAAAAGAUAUAUGGAGUUAGUAGUGCAACCUGCUCGGUCUGAUGAGUCCAAACUUGGACGAAACAGC
2. GCUGUCACCGAGAAACUGUGAAGUAUAUCUUAAACCUGGGCACUUAAAAGAUAUAUGGAGUUAGUAGUGCAACCUGCUCGGUCUGAUGAGUCCUAUUCUGGACGAAACAGC
3. GCUGUCACCGAGAAACUGUGAAGUAUAUCUUAAACCUGGGCACUUAAAAGAUAUAUGGAGUUAGUAGUGCAACCUGCUCGGUCUGAUGAGUCCGUUGACGGACGAAACAGC
4. GCUGUCACCGAGAAACUGUGAAGUAUAUCUUAAACCUGGGCACUUAAAAGAUAUAUGGAGUUAGUAGUGCAACCUGCUCGGUCUGAUGAGUCCGUAAAUGGACGAAACAGC
5. GCUGUCACCGAGAAACUGUGAAGUAUAUCUUAAACCUGGGCACUUAAAAGAUAUAUGGAGUUAGUAGUGCAACCUGCUCGGUCUGAUGAGUCCAGCCAAGGACGAAACAGC
6. GCUGUCACCGAGAAACUGUGAAGUAUAUCUUAAACCUGGGCACUUAAAAGAUAUAUGGAGUUAGUAGUGCAACCUGCUCGGUCUGAUGAGUCCCUAUUAGGACGAAACAGC

stdout:
-0.199
-0.432
-0.0708
-0.979
-0.274
-0.459

Fill in FACS-Seq fitted mean (log10) for each of the 4 variants listed.
1. GCUGUCACCGAGAAACUGUGAAGUAUAUCUUAAACCUGGGCACUUAAAAGAUAUAUGGAGUUAGUAGUGCAACCUGCUCGGUCUGAUGAGUCCGAACGAGGACGAAACAGC
2. GCUGUCACCGAGAAACUGUGAAGUAUAUCUUAAACCUGGGCACUUAAAAGAUAUAUGGAGUUAGUAGUGCAACCUGCUCGGUCUGAUGAGUCCAUUGGUGGACGAAACAGC
3. GCUGUCACCGAGAAACUGUGAAGUAUAUCUUAAACCUGGGCACUUAAAAGAUAUAUGGAGUUAGUAGUGCAACCUGCUCGGUCUGAUGAGUCCUUUUCGGGACGAAACAGC
4. GCUGUCACCGAGAAACUGUGAAGUAUAUCUUAAACCUGGGCACUUAAAAGAUAUAUGGAGUUAGUAGUGCAACCUGCUCGGUCUGAUGAGUCCAGUGCAGGACGAAACAGC

stdout:
1: -0.276; 2: -0.24; 3: -0.162; 4: -0.382

Fill in FACS-Seq fitted mean (log10) for each of the 6 variants listed.
1. GCUGUCACCGAGAAACUGUGAAGUAUAUCUUAAACCUGGGCACUUAAAAGAUAUAUGGAGUUAGUAGUGCAACCUGCUCGGUCUGAUGAGUCCAUGUACGGACGAAACAGC
2. GCUGUCACCGAGAAACUGUGAAGUAUAUCUUAAACCUGGGCACUUAAAAGAUAUAUGGAGUUAGUAGUGCAACCUGCUCGGUCUGAUGAGUCCACCAGUGGACGAAACAGC
3. GCUGUCACCGAGAAACUGUGAAGUAUAUCUUAAACCUGGGCACUUAAAAGAUAUAUGGAGUUAGUAGUGCAACCUGCUCGGUCUGAUGAGUCCCGGGGAGGACGAAACAGC
4. GCUGUCACCGAGAAACUGUGAAGUAUAUCUUAAACCUGGGCACUUAAAAGAUAUAUGGAGUUAGUAGUGCAACCUGCUCGGUCUGAUGAGUCCCACAGAGGACGAAACAGC
5. GCUGUCACCGAGAAACUGUGAAGUAUAUCUUAAACCUGGGCACUUAAAAGAUAUAUGGAGUUAGUAGUGCAACCUGCUCGGUCUGAUGAGUCCAUGGAUGGACGAAACAGC
6. GCUGUCACCGAGAAACUGUGAAGUAUAUCUUAAACCUGGGCACUUAAAAGAUAUAUGGAGUUAGUAGUGCAACCUGCUCGGUCUGAUGAGUCCGCAUUGGGACGAAACAGC

stdout:
1. -0.466
2. -0.368
3. -0.489
4. -0.384
5. -0.631
6. -0.56

Fill in FACS-Seq fitted mean (log10) for each of the 3 variants listed.
1. GCUGUCACCGAGAAACUGUGAAGUAUAUCUUAAACCUGGGCACUUAAAAGAUAUAUGGAGUUAGUAGUGCAACCUGCUCGGUCUGAUGAGUCCUUUAAUGGACGAAACAGC
2. GCUGUCACCGAGAAACUGUGAAGUAUAUCUUAAACCUGGGCACUUAAAAGAUAUAUGGAGUUAGUAGUGCAACCUGCUCGGUCUGAUGAGUCCCGGUUAGGACGAAACAGC
3. GCUGUCACCGAGAAACUGUGAAGUAUAUCUUAAACCUGGGCACUUAAAAGAUAUAUGGAGUUAGUAGUGCAACCUGCUCGGUCUGAUGAGUCCCGGACUGGACGAAACAGC

stdout:
1: 0.192; 2: -0.67; 3: -0.791
